All figures here come from ChEMBL document CHEMBL3593180.

test: Antioxidant activity in soybean large unilamellar vesicles assessed as inhibition of AAPH-induced lipid peroxidation compound added prior to AAPH induction measured after 90 mins by UV-visible absorption spectrometric analysis; format: physicochemical
MEASUREMENT NAME: pIC50
The scale used: pIC50 is minus the common logarithm of the concentration in molar units.

Would you please look over these solved cases?
{"columns": ["MOLECULE", "pIC50"],
 "data": [
  ["Cc1cc2[nH]c3ccccc3c2cc1O", 6.00],
  ["O=c1c(O)c(-c2ccc(O)c(O)c2)oc2cc(O)cc(O)c12 [QUERCETIN]", 6.70]
]}

Note: attention shifts to another entry.
query: Please indicate pIC50 recorded for CCCCCCCC/C=C/CCCCCCCc1c(C)c(O)cc2c1[nH]c1ccccc12
result: 6.80
